test system: SCH; assay: cells; type: functional, cell-based, Homo sapiens; conditions: Homo sapiens, SCH;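 note: growth inhibition of human SCH cells, read out in a cell viability assay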
Description: SANGER: Inhibition of human SCH cell growth in a cell viability assay.
pIC50: −log10 of the molar value. Where a name gives a salt, the structure may show the parent alone.
# pIC50 per record follows

- MOLECULE: "COC1=CC(c2cc3ccccc3[nH]2)=N/C1=C\\c1[nH]c(C)cc1C [OBATOCLAX MESYLATE]"
  pIC50: "< 4.80"
- MOLECULE: "CCN(CC)CCCCNc1ncc2cc(-c3cc(OC)cc(OC)c3)c(NC(=O)NC(C)(C)C)nc2n1"
  pIC50: "< 5.70"

Challenge: May I ask what pIC50 has been recorded for "Nc1ccn([C@@H]2O[C@H](CO)[C@@H](O)C2(F)F)c(=O)n1" ?
Response given: < 5.99

* * *

tested on: C3A; experiment: cells; format: functional, cell-based, Homo sapiens; details: c3a;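 note: growth inhibition of C3A human cells, quantified with a cell viability readout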
Description: SANGER: Inhibition of human C3A cell growth in a cell viability assay.
QUANTITY MEASURED: pIC50
Please report pIC50 as the negative decimal logarithm of the molar concentration, giving only the number.

Challenge: May I ask what pIC50 has been recorded for "BLEOMYCIN" ?
Response given: 6.53

* * *

test system: A704; experiment: cells; assay type: functional, cell-based, Homo sapiens; conditions: Homo sapiens, A704;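 note: growth inhibition of human A704 cells, read out with a cell viability assay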
Description: SANGER: Inhibition of human A704 cell growth in a cell viability assay.
pIC50: −log10 of the molar value.
# pIC50 per record follows

- COMPOUND: "C=C(c1ccc(C(=O)O)cc1)c1cc2c(cc1C)C(C)(C)CCC2(C)C"
  pIC50: "< 5.10"
- COMPOUND: "CC(C)CCN1c2nc(Nc3cc(F)c(O)c(F)c3)ncc2N(C)C(=O)C1C (stereo not drawn)"
  pIC50: "< 5.30"
- COMPOUND: "CCN(CC)CCCCNc1ncc2cc(-c3cc(OC)cc(OC)c3)c(NC(=O)NC(C)(C)C)nc2n1"
  pIC50: "< 5.70"
- COMPOUND: "CC1(C)CNc2cc(NC(=O)c3cccnc3NCc3ccncc3)ccc21"
  pIC50: "< 5.70"
- COMPOUND: "Nc1cccc2c1CN(C1CCC(=O)NC1=O)C2=O (stereo not drawn) [LENALIDOMIDE]"
  pIC50: "< 5.30"

Challenge: May I ask what pIC50 has been recorded for "Nc1ccn([C@@H]2O[C@H](CO)[C@@H](O)C2(F)F)c(=O)n1" ?
Response given: 7.27

Challenge: Here is the next compound: "CS(=O)(=O)c1ccc(C(=O)Nc2ccc(Cl)c(-c3ccccn3)c2)c(Cl)c1"
Response given: < 5.00

Challenge: Here is the next compound: "OCCCNc1cc(-c2ccnc(Nc3cccc(Cl)c3)n2)ccn1"
Response given: < 6.59

* * *

tested on: NB69; assay: cells; format: functional, cell-based, Homo sapiens; conditions: nb69;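 note: growth inhibition of NB69 cells, determined by a cell viability assay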
Description: SANGER: Inhibition of human NB69 cell growth in a cell viability assay.
# pIC50 per record follows
Please report pIC50 as the negative decimal logarithm of the molar concentration, giving only the number.

- BIOSEQUENCE: "CISPLATIN"
  pIC50: 4.28

Challenge: Find pIC50 (NB69) for the entry "BLEOMYCIN"
Response given: 6.04

* * *

test system: DMS-273; assay: cells; format: functional, cell-based, Homo sapiens; conditions: dms-273
Description: SANGER: Inhibition of human DMS-273 cell growth in a cell viability assay.
QUANTITY MEASURED: pIC50
Please report pIC50 as the negative decimal logarithm of the molar concentration, giving only the number.

Challenge: Find pIC50 (DMS-273) for the entry "BLEOMYCIN"
Response given: 5.53

* * *

# IC50 per record follows
system: NH-12; experiment: cells; type: functional, cell-based, Homo sapiens; conditions: Homo sapiens, NH-12
Description: SANGER: Inhibition of human NH-12 cell growth in a cell viability assay.

Worked examples, 5 molecules total:
- MOLECULE: "CC(=O)O[C@H]1C(=O)[C@@]2(C)[C@H]([C@H](OC(=O)c3ccccc3)[C@]3(O)C[C@H](OC(=O)[C@H](O)[C@@H](NC(=O)c4ccccc4)c4ccccc4)C(C)=C1C3(C)C)[C@]1(OC(C)=O)CO[C@@H]1C[C@@H]2O [PACLITAXEL]"
  RESULT: "> 0.102 µM"
- MOLECULE: "Oc1ccc2ccccc2c1SSc1c(O)ccc2ccccc12"
  RESULT: "5.12 µM"
- MOLECULE: "Cc1cn(-c2cc(NC(=O)c3ccc(C)c(Nc4nccc(-c5cccnc5)n4)c3)cc(C(F)(F)F)c2)cn1 [NILOTINIB]"
  RESULT: "> 2 µM"
- MOLECULE: "O=C(O)c1ccc(-c2c[nH]c3ncc(-c4ccccc4)cc23)cc1C1CCCC1 [GSK-650394]"
  RESULT: "12.3 µM"
- MOLECULE: "CCN(CC)CCCCNc1ncc2cc(-c3cc(OC)cc(OC)c3)c(NC(=O)NC(C)(C)C)nc2n1 [PD-173074]"
  RESULT: "> 2 µM"

Challenge: May I ask what IC50 has been recorded for C#Cc1cccc(Nc2ncnc3cc(OCCOC)c(OCCOC)cc23)c1 [ERLOTINIB] ?
Response given: > 2 µM
